tested on: Plasmodium berghei; assay: Screen against P. berghei liver stage (PbLuc), transformed with Luciferase, at 10uM; type: functional, HepG2; settings: tested at 10 uM
The campaign covered roughly 69,000 compounds. About 8,600 (12%) showed an effect of 50% or more. The sample as a whole holds a higher share of strong results than the screen did.
Below is a list of entries, each paired with its recorded INHIBITION value.
Field format: number, assumed %, no unit text.

Some compounds with recorded INHIBITION:
CC(C)CC(=O)N1CC[C@@H]2CN(Cc3cccnc3)S(=O)(=O)[C@@H]2CC1 = 42.1
CN(c1ccc(CNc2ccc(Cl)cn2)cc1)S(C)(=O)=O = -95.7
O=C(COCc1ccco1)Nc1cc(C(F)(F)F)c[nH]c1=O = 19.6
CSc1ccc(CNc2ccccc2CN2CCC(O)CC2)cc1 = -23.1
CN(C)S(=O)(=O)c1ccc(CNc2ccc(Cl)cn2)cc1 = 79.8
Cc1nc(N)c2ccc(C3CCCCN3)nc2n1 (configuration not stated) = 29.35
Cc1nc(CNC(C)c2ccc(S(=O)(=O)N(C)C)cc2)no1 (configuration not stated) = 45.7
CC(C)c1ccc(CNC(C)c2ccc(S(C)(=O)=O)cc2)cc1 (configuration not stated) = 6.39

Continue with the next compound.
# input Quick one: INHIBITION of COCCC(=O)N1CCCC(c2n[nH]cc2C)C1 (configuration not stated) ?
# output 36

====

system: Plasmodium berghei; test: Screen against P. berghei liver stage (PbLuc), transformed with Luciferase, at 10uM; assay type: functional, HepG2; details: tested at 10 uM
Out of some 69,000 compounds screened, about 8,600 (12%) showed an effect of 50% or more. The full list was thinned out, with strong results kept by preference.
Binary label based on INHIBITION with cut-off 20%: below gives TRUE, not below gives FALSE.

# input Bench note: check whether CN(C)c1cnn(Cc2nc3ccccc3n2C)c(=O)c1 shows INHIBITION below 20%
# output FALSE

# input Problem: For the compound COc1cccc(N2CCN(CCC(=O)NC3CCCCC3)CC2)c1 , is INHIBITION under 20%?
# output FALSE

# input Field: below-cutoff. Rule: recorded INHIBITION strictly less than 20%. Subject: CCc1cccc(N2CCC(NC(=O)C3CCCO3)CC2)c1 (configuration not stated)
# output FALSE

# input Please indicate whether the reported INHIBITION of CCc1cccc(N2CCC(NC(=O)C3CCOCC3)CC2)c1 is strictly below 20%.
# output FALSE

# input Regarding O=C(c1cncs1)N1CCOC(c2cc(CCO)[nH]n2)C1 (configuration not stated) , kindly confirm whether its INHIBITION is beneath 20%.
# output TRUE

# input is_below(INHIBITION, 20%) for CCC(=O)NC1CCN(c2cccc(CC)c2)CC1 ?
# output FALSE

# input Is the reported INHIBITION for CCN1CC2(CCN(C(=O)C(C)Oc3ccc(F)cc3F)CC2)OC1=O (configuration not stated) strictly below 20%?
# output FALSE

# input Please state whether INHIBITION is below 20% for CCN1CC2(CCN(C(=O)C(C)Oc3cccc(Cl)c3)CC2)OC1=O (configuration not stated)
# output TRUE

# input Please determine if COc1cccc(N2CCN(CCC(=O)NC3CCCC3)CC2)c1 is below 20% in terms of INHIBITION.
# output FALSE

====

system: Plasmodium berghei; experiment: Screen against P. berghei liver stage (PbLuc), transformed with Luciferase, at 10uM; format: functional, HepG2; conditions: tested at 10 uM
In all, about 69,000 compounds went through this assay and about 8,600 (12%) showed an effect of 50% or more. The sample as a whole holds a higher share of strong results than the screen did.
measurement_label: INHIBITION (%)
# number only, unit % dropped from output

Please review the following examples before continuing.
CC(=O)Nc1ncc(S(=O)(=O)N2CCCC(C)C2)s1 (configuration not stated) = 40.2
COC(=O)c1cccc(NS(=O)(=O)c2cnc(NC(C)=O)s2)c1 = 22.9
Cc1nc2c(c(=O)n1C)CCN(C(=O)CCc1ccccc1O)CC2 = 14.3
Cc1noc(CNC(=O)c2ccccc2-n2cc(CN)cn2)n1 = 20.8
CCNc1ccnc(CN2CCCC2C(=O)Nc2nccs2)c1 (configuration not stated) = 85.1
CC(C)NC(=O)c1ccn(COc2c(Cl)cccc2Cl)n1 = 35
N#Cc1cccc(C(=O)N2CCC(Nc3cccnn3)CC2)c1 = 15.5
O=S(=O)(NC[C@]12COC[C@H]1CN(c1ncc(F)cn1)C2)C1CC1 = -15.6
CCc1nc(C2CCCN(C(=O)c3ccc(Cl)cc3)C2)no1 (configuration not stated) = 23.4
CN1CCN(CC2(O)CCN(C(=O)CCc3ccccc3F)C2)CC1 (configuration not stated) = 16.705

# input What measured INHIBITION goes with CN(Cc1nnn(CC2CCC2)n1)C(=O)c1ccccc1 ?
# output -19.1

# input Which INHIBITION is listed for CCn1ccnc1CN1CCCC1C(=O)Nc1nccs1 (configuration not stated) ?
# output 72.2

# input Item under review: Cc1nc(NCc2nnc(C)n2C)c2c(CC(C)C)csc2n1 . Reported INHIBITION?
# output 46.6

# input Suppose we examine the molecule Cn1cc(-c2cnc(N3CCOCC3)nc2)cc1C(=O)N1CCCC1 ; what INHIBITION value has been reported?
# output -50.9

# input GET /values?readout=INHIBITION&item= CC(NC(=O)NCCc1cnn(C)c1)c1ccc(Cl)s1 (configuration not stated)
# output 68

# input Look up INHIBITION for this molecule: CCc1ccc(C(=O)N2CCCC(c3nn[nH]n3)C2)cc1 (configuration not stated)
# output 67.4

# input Using the record for N#Cc1cccc(OCCN2CCCC2C(=O)Nc2nccs2)c1 (configuration not stated) , report its INHIBITION.
# output 44

# input Entry CCN1CCN(C)C(=O)C12CCN(Cc1cccc(C)c1)CC2 has what INHIBITION?
# output 39.5

# input Request the reported INHIBITION associated with CC1CN(CC(=O)Nc2nccs2)CCN1Cc1nccn1C (configuration not stated)
# output 26.675

# input What value of measured INHIBITION is listed for c1cn(-c2nccnc2C2CCCN(C3CCOCC3)C2)cn1 (configuration not stated) ?
# output 18.805

# input Please look up its INHIBITION: CC(C)Cn1cncc1-c1nc2c([nH]1)CC(C)(C)CNC2=O
# output -109

# input Sample CS(=O)(=O)c1ccc(C(=O)N2CCCC(n3cccn3)C2)cc1 (configuration not stated) — what was its INHIBITION?
# output 18.8

# input Which INHIBITION value belongs to Cc1ccnc(OC[C@@]23CCO[C@@H]2CCN(c2ncccn2)C3)n1 ?
# output 23.3

# input Reported INHIBITION, molecule O=C(C1CC=CC1)N1CC[C@@H](O)[C@H]1Cc1cccnc1 : ____
# output 43

# input Recorded INHIBITION of CN1CCCC2(CC1)CCN(C(=O)CCc1ccccc1O)CC2 , please.
# output 56.5

====

test system: Plasmodium berghei; test: Screen against P. berghei liver stage (PbLuc), transformed with Luciferase, at 10uM; format: functional, HepG2; conditions: tested at 10 uM
Hit rate of the full screen: of about 69,000 compounds, about 8,600 (12%) showed an effect of 50% or more. The list comes from a sample in which strong results are over-represented; it also holds close analogues and randomly drawn compounds.
measurement_label: INHIBITION (%)
Enter your answer as a number in %; do not include the unit.

# input Which INHIBITION reading was recorded for the molecule Cc1ccccc1Oc1ncccc1CNS(C)(=O)=O ?
# output 0.139

# input Param item = CCCS(=O)(=O)NCc1cccnc1Oc1ccc(C)c(F)c1F ; retrieve measured INHIBITION.
# output 50.3

# input For CN1CC(C(=O)NCc2cccnc2OCC(F)(F)F)CC1=O (stereo unspecified) , what is its reported INHIBITION?
# output 44.9

# input Return reported INHIBITION; argument: CC(C)S(=O)(=O)NCc1cccnc1Oc1ccc(F)cc1F
# output 56.3

# input Item under review: CCOC(=O)C1=NOC(Cc2cc(OC)c3c(c2)OCO3)C1 (stereo unspecified) . Reported INHIBITION?
# output 60

# input Recorded INHIBITION for COC(=O)C1=NOC(Cc2cc(OC)c3c(c2)OCO3)C1 (stereo unspecified) , please?
# output 10.7

====

test system: Plasmodium berghei; assay: Screen against P. berghei liver stage (PbLuc), transformed with Luciferase, at 10uM; assay type: functional, HepG2; details: tested at 10 uM
In all, about 69,000 compounds went through this assay and about 8,600 (12%) showed an effect of 50% or more. The full list was thinned out, with strong results kept by preference.
measurement_label: INHIBITION (%)
Number only, in %; omit the unit.

Examples with answers:
O=C(C1CCCO1)N1CCC2(CC1)COCCN(Cc1cccnc1)C2 (stereo unspecified) = 12.2
O=C(NC[C@H]1OC[C@@H](NC2COC2)[C@@H]1O)C1CCCC1 = 29
CNC(=O)C1CCN(Cc2nc(-c3ccc(SC)cc3)oc2C)C1 (stereo unspecified) = -2.5
O=C(NC[C@H]1OC[C@@H](NC2CCCC2)[C@@H]1O)C1CCCC1 = 30.5
CCn1ccc2ccnc(CC3CN(C(=O)c4cnco4)C3)c21 = 1.62

Now turn to the next compound.
# input Can you share its INHIBITION? I mean this compound: CSc1ccc(-c2nc(CN3CCC(NC(C)=O)CC3)c(C)o2)cc1
# output 5.51
